procedureDetails: total protein half-life in vivo (active degradation + dilution); higher = more stable protein
testParameters: wild type E. coli NCM3722; growth: C-lim chemostat; doubling time 12 h
Would you mind telling me the reported total protein half-life in vivo of each entry?
One number for each entry, in h.

**Q:** For MSNQEPATILLIDDHPMLRTGVKQLISMAPDITVVGEASNGEQGIELAESLDPDLILLDLNMPGMNGLETLDKLREKSLSGRIVVFSVSNHEEDVVTALKRGADGYLLKDMEPEDLLKALHQAAAGEMVLSEALTPVLAASLRANRATTERDVNQLTPRERDILKLIAQGLPNKMIARRLDITESTVKVHVKHMLKKMKLKSRVEAAVWVHQERIF [P0AF28] , what is its reported total protein half-life in vivo?
**A:** 10.1

**Q:** For MQKIVIVANGAPYGSESLFNSLRLAIALREQESNLDLRLFLMSDAVTAGLRGQKPGEGYNIQQMLEILTAQNVPVKLCKTCTDGRGISTLPLIDGVEIGTLVELAQWTLSADKVLTF [P0AB52] , what is its reported total protein half-life in vivo?
**A:** 13.2

**Q:** For MKSVLKVSLAALTLAFAVSSHAADKKLVVATDTAFVPFEFKQGDKYVGFDVDLWAAIAKELKLDYELKPMDFSGIIPALQTKNVDLALAGITITDERKKAIDFSDGYYKSGLLVMVKANNNDVKSVKDLDGKVVAVKSGTGSVDYAKANIKTKDLRQFPNIDNAYMELGTNRADAVLHDTPNILYFIKTAGNGQFKAVGDSLEAQQYGIAFPKGSDELRDKVNGALKTLRENGTYNEIYKKWFGTEPK [P0AEQ3] , what is its reported total protein half-life in vivo?
**A:** 11.8

**Q:** For MQLTSFTDYGLRALIYMASLPEGRMTSISEVTDVYGVSRNHMVKIINQLSRAGYVTAVRGKNGGIRLGKPASAIRIGDVVRELEPLSLVNCSSEFCHITPACRLKQALSKAVQSFLTELDNYTLADLVEENQPLYKLLLVE [P0AF63] , what is its reported total protein half-life in vivo?
**A:** 8.91

**Q:** For MMSTTLFKDFTFEAAHRLPHVPEGHKCGRLHGHSFMVRLEITGEVDPHTGWIIDFAELKAAFKPTYERLDHHYLNDIPGLENPTSEVLAKWIWDQVKPVVPLLSAVMVKETCTAGCIYRGE , what is its reported total protein half-life in vivo?
**A:** 12.7

Below are some sequences; for each one, tell me its total protein half-life in vivo.
1. MSEKYIVTWDMLQIHARKLASRLMPSEQWKGIIAVSRGGLVPGALLARELGIRHVDTVCISSYDHDNQRELKVLKRAEGDGEGFIVIDDLVDTGGTAVAIREMYPKAHFVTIFAKPAGRPLVDDYVVDIPQDTWIEQPWDMGVVFVPPISGR [P0A9M5]
2. MSDNIRVGLIGYGYASKTFHAPLIAGTPGQELAVISSSDETKVKADWPTVTVVSEPKHLFNDPNIDLIVIPTPNDTHFPLAKAALEAGKHVVVDKPFTVTLSQARELDALAKSLGRVLSVFHNRRWDSDFLTLKGLLAEGVLGEVAYFESHFDRFRPQVRDRWREQGGPGSGIWYDLAPHLLDQAITLFGLPVSMTVDLAQLRPGAQSTDYFHAILSYPQRRVILHGTMLAAAESARYIVHGSRGSYVKYGLDPQEERLKNGERLPQEDWGYDMRDGVLTRVEGEERVEETLLTVPGNYPAYYAAIRDALNGDGENPVPASQAIQVMELIELGIESAKHRATLCLA

**A:**
9.92
9.43
